target_or_test_system: Neu5Ac(a2-6)Gal(b1-4)GlcNAc(b1-6)[Gal(b1-3)]GalNAc
test_description: glycan array binding signal (z-score within array); higher = stronger binding
test_parameters: glycan notation: IUPAC condensed, linker removed
The full list was thinned out, with the strongest signals kept by preference.
Label 1 (yes) when glycan array binding signal (z-score) is at or above -0.2; anything below gets 0 (no).

Field: example entries. Status: answers known.
1. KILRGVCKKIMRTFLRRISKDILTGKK [NK2 (Sus scrofa)]    0 (no)
2. GNL (Galanthus nivalis) (protein) MGHHHHHHHHYGTLENGHWLMVGMSIFSKDRTVELRMQDDGKLAIYYNDHCAWQSTAQQVNNAKGAVMQGDGNFCIYDKNGKATWHTNTAAPSGDSHTFVSVQDDGNLVLYKNNGATPIWSSKSNK    1 (yes)
3. LSECtin (Homo sapiens), Q6UXB4 (protein) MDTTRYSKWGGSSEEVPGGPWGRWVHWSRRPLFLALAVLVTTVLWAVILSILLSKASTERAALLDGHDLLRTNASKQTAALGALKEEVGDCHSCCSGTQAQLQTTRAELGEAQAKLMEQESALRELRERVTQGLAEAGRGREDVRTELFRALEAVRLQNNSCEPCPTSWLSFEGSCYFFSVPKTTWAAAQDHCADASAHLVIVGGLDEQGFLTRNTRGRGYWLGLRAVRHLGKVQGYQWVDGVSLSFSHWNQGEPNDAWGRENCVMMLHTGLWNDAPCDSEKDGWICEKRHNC    1 (yes)
4. ArathEULS3 TAP (Arabidopsis thaliana) (protein) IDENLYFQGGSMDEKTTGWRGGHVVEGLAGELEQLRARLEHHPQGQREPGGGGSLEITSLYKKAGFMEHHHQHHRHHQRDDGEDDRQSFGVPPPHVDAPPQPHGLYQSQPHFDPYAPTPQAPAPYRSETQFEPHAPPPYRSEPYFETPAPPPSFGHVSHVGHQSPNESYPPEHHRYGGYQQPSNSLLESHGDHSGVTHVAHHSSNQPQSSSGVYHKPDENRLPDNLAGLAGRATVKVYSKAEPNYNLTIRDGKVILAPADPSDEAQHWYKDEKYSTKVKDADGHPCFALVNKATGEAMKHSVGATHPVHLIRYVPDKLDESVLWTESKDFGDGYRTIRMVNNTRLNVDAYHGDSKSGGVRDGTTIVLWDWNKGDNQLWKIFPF    1 (yes)
5. HPAIIITrx (Helix pomatia), Q1KM18 (protein) MLFVTIISLGLLAIVHGQCALKTIAFSAAIDREQTFDANQVVIYDIVITNHGNAYDNSTGLFTAPVDGMYSFQLNLLTIKEKEGWLELVHNGQLKVSVYAKQDSTYDSSSNSVIIKMKEGDRVNVRAHKKSGLFGRDDELYNTFSGHFLSGL    0 (no)

Shift focus to the following entry.
Determine whether this binder has glycan array binding signal (z-score) no lower than -0.2: BDCA-2 (Homo sapiens), Q8WTT0 (protein) MVPEEEPQDREKGLWWFQLKVWSMAVVSILLLSVCFTVSSVVPHNFMYSKTVKRLSKLREYQQYHPSLTCVMEGKDIEDWSCCPTPWTSFQSSCYFISTGMQSWTKSQKNCSVMGADLVVINTREEQDFIIQNLKRNSSYFLGLSDPGGRRHWQWVDQTPYNENVTFWHSGEPNNLDERCAIINFRSSEEWGWNDIHCHVPQKSICKMKKIYI
1 (yes)
